System: SF-539 CNS
test: NCI-60 one-dose screen, 48 h
assayConditions: 10 µM unless noted
Compounds without any hit were thinned out: in the full panel of roughly 83,000, 20% have a hit. Activity calls are given as the source filed them. The calls were made as follows: active = growth percent below 10; inactive = the rest.
Classes used: yes (1) = active, no (0) = inactive

>>> answerlabel("O=S(=O)(CCN1CCOCC1)Nc1cncc(-c2ccc3ncnc(Nc4ccc(F)c(Cl)c4)c3c2)c1")
"no (0)"
>>> answerlabel("CN[C@@H](CCCNC(N)=NC/C=C(/C)CCC=C(C)C)C(=O)N(C)[C@@H](CCCNC(N)=NCC=C(C)C)C(=O)N[C@H](C)[C@H](OS(=O)(=O)O)c1ccc(OS(=O)(=O)O)c(COS(=O)(=O)O)c1")
"no (0)"
>>> answerlabel("COc1ccc(/C(Cl)=N/N=C(\\Cl)c2cc(OC)c(OC)c(OC)c2)cc1OC(C)=O")
"no (0)"
>>> answerlabel("N#CC1=C(N)Oc2c(ccc3ccccc23)C1c1cc(=O)oc2ccc(Cl)cc12 (stereo not drawn)")
"yes (1)"
>>> answerlabel("CC(C)(c1ccc(OCC(O)CNCc2ccco2)cc1)c1ccc(OCC(O)CNCc2ccco2)cc1 (stereo not drawn)")
"no (0)"
>>> answerlabel("COc1ccc(-c2cc3ccc(N(C)C)cc3nc2N)c(F)c1")
"no (0)"
>>> answerlabel("Cc1ccc2c(C3C(C#N)=C(N)Oc4cc5ccccc5cc43)cc(=O)oc2c1 (stereo not drawn)")
"yes (1)"
>>> answerlabel("COc1ccc(-c2nnc(NC(=O)CN3CCN(c4cc5c(cc4F)c(=O)c(C(=O)O)cn5C4CC4)CC3)s2)cc1OC")
"no (0)"

====

Test system: A498 renal
test: NCI-60 one-dose screen, 48 h (100 = growth as untreated, 0 = no growth, -100 = all killed)
assayConditions: 10 µM unless noted
Compounds without any hit were thinned out: in the full panel of roughly 83,000, 20% have a hit.
compounds and their reported growth
measurementName: growth (%)

>>> measurednumber("S=c1[nH]nc(Cn2c3ccccc3c3ccncc32)o1")
97.3
>>> measurednumber("CCN(CC)CCN1C(=O)c2c(c3c4ccccc4[nH]c3c3[nH]c4ccccc4c23)C1=O")
67.7
>>> measurednumber("O=C(NCCNc1nccc(-c2c(-c3cccc(O)c3)nc3sccn23)n1)c1cc(N2CCOCC2)cc(C(F)(F)F)c1")
92.8
>>> measurednumber("NN=C(c1ccc(Cl)cc1)c1ccc(Cl)cc1")
96
>>> measurednumber("Cc1cc(-c2ccccc2)nc2ccccc12")
106
>>> measurednumber("CC(CCC(=O)O)[C@H]1CCC2C3C(=O)C[C@@H]4CC(=O)CC[C@]4(C)C3CC(=O)[C@@]21C (some centres undefined)")
88
>>> measurednumber("C#CC(=O)/C=C/CCCCCCC#CC(=O)CCC(=O)C#CCCCCCC/C=C/C(=O)C#C")
93.4
>>> measurednumber("COc1ccc(-c2nn(-c3ccc(NC(=O)Nc4ccc(Cl)c(Cl)c4)cc3)cc2-c2ccncc2)cc1Cl")
10.7
>>> measurednumber("C=C1C(=O)O[C@H]2[C@H]1CC/C(C(=O)Nc1ccc(OC)c(C(N)=O)c1O)=C\\CC[C@@]1(C)O[C@@H]21")
78.3

====

System: UO-31 renal
test: NCI-60 one-dose screen, 48 h
assayConditions: 10 µM unless noted
The panel holds about 83,000 compounds, 20% with a hit somewhere; the sample as a whole holds those more often. Calls of active or inactive are those of the source. How the source made its calls: active means growth percent below 10; inactive means the rest.
Classes used: active, inactive

>>> answerlabel("O=C(Nc1ccc(F)cc1)Nc1ccc(Br)c(C(F)(F)F)c1")
"active"
>>> answerlabel("COc1cc(NC(C)CCCN2C(=O)c3ccccc3C2=O)c2ncccc2c1OC (stereo unspecified)")
"inactive"
>>> answerlabel("CCCC(=O)Oc1ccc(/C(=C(\\C)c2ccc(Cl)cc2)c2ccc(OCCN(CC)CC)cc2)cc1")
"active"
>>> answerlabel("Cc1cc(O[C@@H]2O[C@@H](C)[C@H](O)[C@@H](O)[C@H]2O)c2c3c(c(O[C@@H]4O[C@@H](C)[C@H](O)[C@@H](O)[C@H]4O)cc2c1)C(=O)c1c(O)cccc1C3=O")
"inactive"
>>> answerlabel("COc1ccc2c(c1)OC(N)=C(C#N)C2c1ccc(F)c(F)c1 (stereo unspecified)")
"inactive"
>>> answerlabel("Nc1nc(-c2cc3c(cc2Cl)NC(=O)/C3=C/c2ccccc2)cs1")
"inactive"
>>> answerlabel("CNC(=O)NN")
"inactive"
>>> answerlabel("NC(=NCCCOc1ccc(F)cc1)Nc1ccc(Cl)c(Cl)c1")
"inactive"
>>> answerlabel("CC(=O)Cc1cccnc1")
"inactive"
>>> answerlabel("O=C1CCC(c2c(O)cc(O)c3c(=O)c(O)c(-c4ccc(O)c(O)c4)oc23)N1 (stereo unspecified)")
"inactive"
>>> answerlabel("O=C(NCCNc1nccc(-c2c(-c3cccc(O)c3)nc3sccn23)n1)c1cccc(C(F)(F)F)c1")
"inactive"
>>> answerlabel("O=C(Nc1ccc(-n2ccc3c(NC(=O)c4ccccc4)ncnc32)cc1)c1ccc(Cl)c(C(F)(F)F)c1")
"inactive"
>>> answerlabel("O=C(O)c1cccc2oc(-c3ccccc3O)nc12")
"inactive"
>>> answerlabel("N#Cc1c2c(c(N)[nH]c1=O)C(=O)NC2(O)c1ccccc1 (stereo unspecified)")
"inactive"
>>> answerlabel("O=C(Nc1ccc(-n2cc(-c3ccncc3)c(-c3ccc(O)c(Cl)c3)n2)cc1)c1cc(C(F)(F)F)cc(C(F)(F)F)c1")
"inactive"
>>> answerlabel("CCNc1cc(S(=O)(=O)O)ccc1C")
"inactive"
>>> answerlabel("Cc1cccc(NC(=O)CCc2ccc(N3C(N)=NC(N)=NC3(C)C)cc2)c1")
"inactive"
>>> answerlabel("Nc1ncnc2c1c(C(F)(F)F)cn2[C@@H]1O[C@H](CO)[C@@H](O)[C@H]1O")
"active"
>>> answerlabel("CC(=O)Nc1ccc(OC(=O)c2ccccc2O)cc1")
"inactive"
>>> answerlabel("COc1cc(NC(C)CCCN2C(=O)c3ccccc3C2=O)c2nccc(C)c2c1OC (stereo unspecified)")
"inactive"
>>> answerlabel("NN=C(c1ccc(Cl)cc1)c1ccc(Cl)cc1")
"inactive"

====

compounds and their reported growth
System: SW-620 colon
test: NCI-60 one-dose screen, 48 h (100 = growth as untreated, 0 = no growth, -100 = all killed)
assayConditions: 10 µM unless noted
This is part of a sample that, as a whole, favours compounds with a hit. Of some 83,000 tested, about 20% had one in any assay.
measurementName: growth (%)

>>> measurednumber("C#CC(=O)/C=C/CCCCCCC#CC(=O)CCC(=O)C#CCCCCCC/C=C/C(=O)C#C")
8.47
>>> measurednumber("CC(C)(C)OC(=O)N1CCN(CCn2cc(C(F)(F)F)c3c(Cl)ncnc32)CC1")
12
>>> measurednumber("CCc1cccc(-c2ccccc2)c1")
99.8
>>> measurednumber("CCC1CN2C(=N1)c1ccccc1-c1cc(Cl)ccc12 (configuration not stated)")
18.6
>>> measurednumber("COc1cc(NS(=O)(=O)c2ccc(N)cc2)ncn1")
108
>>> measurednumber("C[C@]12CC[C@@H]3c4ccc(O)c(N)c4CC[C@H]3[C@@H]1CC[C@@H]2O")
122
>>> measurednumber("Cc1cccc(NCS(=O)(=O)O)c1")
101
>>> measurednumber("O=C1COc2ccccc2C(=O)N1CCCCN1CCCCC1")
84.6
>>> measurednumber("Cc1cn(C2CC(F)C(CO)O2)c(=O)[nH]c1=O (configuration not stated)")
115
>>> measurednumber("N#CC(C#N)=C(C#N)c1c[nH]c2ccccc12")
62.4
>>> measurednumber("Cc1nc(N)nc(SCc2ccccc2)c1Br")
104
>>> measurednumber("CC(=O)Nc1ccc([I+]c2ccc([N+](=O)[O-])cc2)cc1")
95.1
>>> measurednumber("COc1ccc(C2CC(c3cc(Cl)c(C)cc3OC)=NN2c2ccc(S(N)(=O)=O)cc2)cc1OC (configuration not stated)")
93.6
>>> measurednumber("O=C(Nc1ccc(-n2ccc3c(NC(=O)c4ccccc4)nccc32)cc1)c1ccc(Cl)c(C(F)(F)F)c1")
-45.8
>>> measurednumber("Cc1cccc(CC(=O)c2ccccc2)n1")
91.3
>>> measurednumber("COc1ccc(NC(=O)Nc2ccc(-c3ccc(OC)c(OC)c3)nc2C)cc1")
64.8
>>> measurednumber("CCCCCCCCCCCCCCCCNc1ccccc1")
108
>>> measurednumber("COc1cc(NC(=O)c2cc(OC)c3ccn(C)c3c2)cc2c1C[C@]1(C)CC[C@@H](O)C(C)(C)[C@H]1O2")
57.7
>>> measurednumber("COc1ccccc1N1CCN(CCCOc2ccc(OCCCN3CCN(c4ccccc4OC)CC3)c(C(=O)c3cc(OC)c(OC)c(OC)c3)c2)CC1")
102
>>> measurednumber("Cn1cnc([N+](=O)[O-])c1N1c2ccncc2Sc2ccncc21")
95.1
>>> measurednumber("CCn1cc(/C=C2\\Oc3cc(OCC#N)ccc3C2=O)c2cc(OC)ccc21")
28
>>> measurednumber("Cc1cc(C)c(O)c(C(=O)CC(Br)C(=O)O)c1 (configuration not stated)")
116
